# Tested on: TF1.8 cells
# Assay details: TF1.8 bioassay of IL-4 mutants (support of proliferation)
# Type: cell-based, human
# Cond: IL-4 wt and mutants, TF1.8 cells
Measurement type: Conc needed for 50% growth, average
# number then unit; no other words

Below are worked cases with known answers.
Exercise: // returns reported Conc needed for 50% growth, average for input K77A/R81A: IL-4 double mutant (protein) HKCDITLQEIIKTLNSLTEQKTLCTELTVTDIFAASKNTTEKETFCRAATVLRQFYSHHEKDTRCLGATAQQFHRHAQLIAFLKRLDRNLWGLAGLNSCPVKEANQSTLENFLERLKTIMREKYSKCSS
Solution: 1.65 ng/mL

Exercise: Next entry: K21A: IL-4 mutant, baculovirus expressed (protein) HKCDITLQEIIKTLNSLTEQATLCTELTVTDIFAASKNTTEKETFCRAATVLRQFYSHHEKDTRCLGATAQQFHRHKQLIRFLKRLDRNLWGLAGLNSCPVKEANQSTLENFLERLKTIMREKYSKCSS
Solution: 1.36 ng/mL

Please give Conc needed for 50% growth, average for each item listed below.
1. K77A/K84A: IL-4 double mutant (protein) HKCDITLQEIIKTLNSLTEQKTLCTELTVTDIFAASKNTTEKETFCRAATVLRQFYSHHEKDTRCLGATAQQFHRHAQLIRFLARLDRNLWGLAGLNSCPVKEANQSTLENFLERLKTIMREKYSKCSS
2. K12A: IL-4 mutant, baculovirus expressed (protein) HKCDITLQEIIATLNSLTEQKTLCTELTVTDIFAASKNTTEKETFCRAATVLRQFYSHHEKDTRCLGATAQQFHRHKQLIRFLKRLDRNLWGLAGLNSCPVKEANQSTLENFLERLKTIMREKYSKCSS
3. R81A: IL-4 mutant, baculovirus expressed (protein) HKCDITLQEIIKTLNSLTEQKTLCTELTVTDIFAASKNTTEKETFCRAATVLRQFYSHHEKDTRCLGATAQQFHRHKQLIAFLKRLDRNLWGLAGLNSCPVKEANQSTLENFLERLKTIMREKYSKCSS

Solution:
1.69 ng/mL
0.6 ng/mL
4.85 ng/mL
